// data source = patent US20150104459A1

Target: recombinant soluble homotrimeric HA, A/duck/Yangzhou/02/2005 (H8N4) (influenza A virus A/duck/Yangzhou/02/2005 (H8N4))
Assay: microarray, trimeric HA, transfection supernatant
Settings: remark: other sources report otherwise
# Trimeric HA Binding RLU values compiled below
Dear colleague, please return just the value in RLU, with no unit written.

The examples below pair each entry with its known result.
>>> numeric_readout("TCN-546 (5089_L08) (antibody, V domains shown) VH: QVQLQQWGAGLLKPSETLSLTCGVYGGSLSDYYWSWIRQPPGKGLEWIGEINHSGGTNYNPSLKRRVTISVDTSKKQFSLKMNSVTAADTAVYYCARGTDPDTEVYCRAGNCAAFDFWGQGTLVTVSS VL: EIVLTQSPGTLSLSPGERATLSCRASHFVIGRAVAWYQQKPGQAPRLLIYGASSRATGIPDRFSGSGSGTDFTLTISRLETEDFAVFYCQHYGSSPRYAFGQGTKLEIK")
11400
>>> numeric_readout("TCN-550 (5096_F06) (antibody, V domains shown) VH: QVQLQESGPGLVKPSETLSLTCTVSGASINSHYWSWIRQPPGKGLEWIGYVYYSGSTTYNPSLKSRVTLSVDTSKNQFSLNLSSVTAADTAFYYCARHPYDVLTGSGDWFDPWGQGTLVTVSS VL: SYVLTQAPSVSVAPGQTARITCGGNAIGSKKVHWYQHKAGQAPVLVVYDDTDRPSGIPERFSGSNSWSTATLTINRVEAGDEADYYCQVWDFTIDHVVFGGGTKLTVL")
4710

Query: Consider the binder TCN-545 (5082_I15) (antibody, V domains shown) VH: QVQLQQWGAGLLKPSETLSLSCAVFGGSFSDYYWTWIRQPPGKGLEWIGEIKHSGRTNYNPSLESRVTISVDTSKNQFSLKLSSVTAADTAIYYCARGTDPDTEGYCRSGSCSAFDFWGQGTLVTVSS VL: EIVLTQSPGTLSLSPGERATLSCRASHFVNYRSLAWYQQTPGQVPRLLIYGASTRATGIPDRFSGSGSGTDFTLTISRLEPEDFAVYFCQQYGGSPRYTFGQGTRLEIK and give its measured Trimeric HA Binding RLU.
Response: 13200
